System: Enterobacter cloacae
Experiment: MIC against Gram-negative bacteria: Enterobacter cloacae
Format: cell-based
Conditions: E. cloacae; 10 h cultivation at 37° C.; 5×10^5 CFU/mL
Property: MIC; scope: individual substances
Report as a plain number; the unit mg/L is understood.

PRT424 (DINECVTDLHTCSRGEHCVNTLGSFHCYKALTCEPGYALKDGECE; listed as Homo sapiens) :: 25
PRT439 (DINECQESSPCHQRCFNAIGSFHCGCEPGYQLKGRKCM; listed as Homo sapiens) :: 25
PRT432 (DVDECATDSHQCNPTQICINTEGGYTCSCTDGYWLLEGQCL; listed as Homo sapiens) :: 25
PRT399 (DVDECRMLAHLCAHGECINSLGSFRCHCQAGYTPDATATTCL; listed as Homo sapiens) :: 12.5
PRT430 (DIDECAQGAGILCTFRCLNVPGSYQCACPEQGYTMTANGRSCK; listed as Homo sapiens) :: 12.5

// below: MIC requested for another substance
Param item = PRT433 (DIDECRYGYCQQLCANVPGSYSCTCNPGFTLNEDGRSCQ; listed as Homo sapiens) ; retrieve measured MIC.
50
